molecular target: Nuclear receptor ROR-beta (Homo sapiens) (UniProt Q92753); test: Inverse agonist activity at human ROR-beta1 transfected in HEK293 cells at 10 uM after 16 hrs by luciferase reporter gene assay relative to control; format: cell-based
Sequence (Q92753 whole entry): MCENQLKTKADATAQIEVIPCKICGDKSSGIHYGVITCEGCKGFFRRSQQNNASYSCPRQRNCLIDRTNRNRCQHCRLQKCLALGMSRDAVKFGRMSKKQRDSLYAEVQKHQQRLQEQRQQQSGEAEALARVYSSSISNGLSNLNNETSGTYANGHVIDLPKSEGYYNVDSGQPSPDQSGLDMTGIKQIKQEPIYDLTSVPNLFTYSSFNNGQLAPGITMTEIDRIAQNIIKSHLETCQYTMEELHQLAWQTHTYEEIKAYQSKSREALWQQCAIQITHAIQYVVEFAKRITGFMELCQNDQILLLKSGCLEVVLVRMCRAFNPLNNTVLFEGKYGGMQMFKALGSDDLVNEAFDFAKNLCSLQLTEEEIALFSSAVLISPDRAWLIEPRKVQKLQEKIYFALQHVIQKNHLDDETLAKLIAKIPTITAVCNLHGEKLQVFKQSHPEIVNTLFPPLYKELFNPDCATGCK
Attribute Measured: inhibition (%)
Value expressed in %; do not type the unit.

CCCCn1c(=O)c2ccccc2c2cc(CC)ccc21    29

Exercise: API: value(readout=inhibition, system=Nuclear receptor ROR-beta (Homo sapiens) (UniProt Q92753)) for record `C[Si]1(C)c2ccccc2-c2cc(C(O)(C(F)(F)F)C(F)(F)F)ccc21`
Solution: 40

Exercise: Recall the recorded inhibition for `CC[Si]1(CC)c2ccccc2-c2cc(C(O)(C(F)(F)F)C(F)(F)F)ccc21` with Nuclear receptor ROR-beta (Homo sapiens) (UniProt Q92753) and state it.
Solution: 28

Value source: ChEMBL document CHEMBL3585299
